Below, each entry is listed with its recorded HEKBlue TGFβ blocking IC50.
targetOfAssay: T1, human TGFβ2, mature receptor-binding domain (human, UniProt P09858 303-414 (pig entry), The mature TGFβ2 is a disulfide-linked homodimer of this 112-residue chain. The 4A11 epitope spans both monomers (p-1207).)
T1 sequence: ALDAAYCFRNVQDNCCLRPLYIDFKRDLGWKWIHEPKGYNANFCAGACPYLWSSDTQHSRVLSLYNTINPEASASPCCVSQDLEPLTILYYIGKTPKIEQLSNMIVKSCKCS
assayText: cell-based or functional assay

[
  {
    "binder": "h4A11.v3 (antibody, human IgG1, kappa, N297G, V domains shown) VH: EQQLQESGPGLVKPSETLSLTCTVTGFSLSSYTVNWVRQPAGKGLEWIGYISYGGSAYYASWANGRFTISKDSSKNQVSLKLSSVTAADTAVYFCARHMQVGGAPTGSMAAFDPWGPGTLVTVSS VL: DAVLTQSPDSLAVSLGERATINCQSSQSVYNNNYLSWFQQKPGQPPKLLIYGASTLTSGVPDRFSGSGSGTDFTLTISSLQAEDVAVYYCAGGYSGSSDKYAFGGGTKVEIKR",
    "HEKBlue TGFβ blocking IC50": "0.0039 µM"
  },
  {
    "binder": "h4A11.v5 (antibody, human IgG1, kappa, N297G, V domains shown) VH: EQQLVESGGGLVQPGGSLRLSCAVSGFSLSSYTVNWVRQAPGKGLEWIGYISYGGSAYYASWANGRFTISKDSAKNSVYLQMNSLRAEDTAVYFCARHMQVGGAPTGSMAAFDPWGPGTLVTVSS VL: EAVLTQSPGTLSLSPGERATLSCQSSQSVYNNNYLSWFQQKPGQPPRLLIYGASTLTSGVPDRFSGSGSGTDFTLTISRLEPEDFAVYYCAGGYSGSSDKYAFGGGTKVEIKR",
    "HEKBlue TGFβ blocking IC50": "> 0.2 µM"
  },
  {
    "binder": "h4A11.v6 (antibody, human IgG1, kappa, N297G, V domains shown) VH: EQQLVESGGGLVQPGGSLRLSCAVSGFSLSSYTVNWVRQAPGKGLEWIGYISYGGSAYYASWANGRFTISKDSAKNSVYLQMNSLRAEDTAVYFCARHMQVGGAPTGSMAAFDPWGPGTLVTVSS VL: DAVLTQTPLSSPVTLGQPASISCQSSQSVYNNNYLSWFQQRPGQPPRLLIYGASTLTSGVPDRFSGSGAGTDFTLKISRVEAEDVGVYYCAGGYSGSSDKYAFGGGTKVEIKR",
    "HEKBlue TGFβ blocking IC50": "> 0.2 µM"
  },
  {
    "binder": "h4A11.v1 (antibody, human IgG1, kappa, N297G, V domains shown) VH: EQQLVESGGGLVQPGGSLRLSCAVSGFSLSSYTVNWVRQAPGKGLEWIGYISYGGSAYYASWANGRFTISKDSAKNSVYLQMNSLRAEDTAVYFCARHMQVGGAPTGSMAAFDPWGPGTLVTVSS VL: DAVLTQSPDSLAVSLGERATINCQSSQSVYNNNYLSWFQQKPGQPPKLLIYGASTLTSGVPDRFSGSGSGTDFTLTISSLQAEDVAVYYCAGGYSGSSDKYAFGGGTKVEIKR",
    "HEKBlue TGFβ blocking IC50": "> 0.2 µM"
  },
  {
    "binder": "h4A11.v8 (antibody, V domains shown) VH: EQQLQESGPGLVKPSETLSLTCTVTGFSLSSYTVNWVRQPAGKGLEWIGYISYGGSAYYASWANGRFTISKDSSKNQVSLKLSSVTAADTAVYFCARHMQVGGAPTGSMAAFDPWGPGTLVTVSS VL: DAVLTQTPLSSPVTLGQPASISCQSSQSVYNNNYLSWFQQRPGQPPRLLIYGASTLTSGVPDRFSGSGAGTDFTLKISRVEAEDVGVYYCAGGYSGSSDKYAFGGGTKVEIK",
    "HEKBlue TGFβ blocking IC50": "> 0.2 µM"
  }
]
